Ref: PubChem BioAssay (Tox21)

- measurementTarget: Beta-2 adrenergic receptor (Homo sapiens)
- experimentNotes: Adrenergic beta2 receptor (ADRB2) small molecule antagonists, cell-based qHTS assay (AID 1963592); also: nearly all actives have a fitted effect of over 50% in size
- protocolConditions: CHO-ADRB2 cells, isoproterenol-stimulated cAMP HTRF ratio, 0.5 h; series mostly up to 92.4 µM
Inconclusive results are not listed. The source made the active and inactive calls. Calls follow the shape of the full dose curve.
A correct response names exactly one class from T = active, F = inactive

How was O=C1CN2CCOC2(c2ccccc2Cl)c2cc(Cl)ccc2N1 (stereo unspecified) classified in this test?
F

Same question for CCn1cc[n+](C)c1 (tested in a mixture with another compound) please.
F

Same question for `CCS(=O)(=O)CCSP(=O)(OC)OC` please.
F

Same question for `CCOP(=S)(OCC)Oc1cc(C)nc(N(CC)CC)n1` please.
F

Same question for `O=C(Cc1ccccc1)OCc1ccccc1` please.
F
